- STUDY_SYSTEM: Neurotensin receptor type 1 (Homo sapiens)
- EXPERIMENTAL_PROTOCOL: NTR1 agonists in analog series, SAR follow-up, imaging, image-based, set 3 (AID 602356)
- STUDY_CONDITIONS: NTR1 image-based agonist assay, cellular imaging
Calls of active or inactive are those of the source. The rule behind the calls is not given here.
// classify into True for active, False for inactive

Worked examples, 3 compounds total:
COc1cc2nc(C3CC3)nc(N3CCN(c4ccccc4Cl)CC3)c2cc1OC : True
Cc1ccc(-c2nnc3c4cc5c(cc4n(Cc4ccccc4)cc2-3)OCO5)cc1C : True
COc1cc2c3nnc(-c4ccc(Cl)cc4)c-3cn(Cc3ccc(C)cc3)c2cc1OC : True

# evaluate next
Each compound tested received a call. Report the one for "COc1cc2c3nnc(-c4ccc(F)cc4)c-3cn(CC3CC3)c2cc1OC" .
False

FYI, the data here is from PubChem BioAssay AID602356.
